system: NCI-H226 lung; experiment: NCI tumour cell line growth inhibition, 48 h
MEASURE: TGI

Some solved entries appear below for comparison.
COMPOUND: CN(C)P(=O)(Oc1ccc(CC(NC(=O)OCc2ccccc2)C(=O)OCc2ccccc2)cc1)N(C)C (stereo not drawn)
VALUE_MEASURED: 52.8 µM
//
COMPOUND: CC1=CC[C@@]2(CO)[C@@H]([C@@H]1C)[C@H]1CC[C@@H]3[C@@]4(C)CC[C@H](O)C(C)(C)[C@@H]4CC[C@@]3(C)[C@]1(C)C[C@@H]2O
VALUE_MEASURED: 81.4 µM

Q) Can you share its TGI? I mean this compound: Cc1nc2c(=O)n(-c3ccccc3)c3ccccc3c2o1
A) > 100 µM

---

system: OVCAR-5 ovarian; assay: NCI tumour cell line growth inhibition, 48 h
MEASURE: TGI

Some solved entries appear below for comparison.
COMPOUND: O=C(O)C[C@H]1CCCCC12CCOC2=O (some centres undefined)
TGI: > 100 µM

COMPOUND: CCCCCCCCCCCCCC1=NCCN1CCO
TGI: 18.3 µM

Q) Can you share its TGI? I mean this compound: CNC(=O)SCC(N)C(=O)O (centres undefined)
A) > 100 µM

Q) Query CC1Oc2c(c(=O)oc3ccccc23)[C@@]1(C)CC1C[C@H](C)C(=O)O1 (some centres undefined) next
A) > 100 µM

---

Reported TGI by item:
tested on: UACC-62 melanoma; experiment: NCI tumour cell line growth inhibition, 48 h

Some solved entries appear below for comparison.
COMPOUND: O=c1[nH]nc(Cc2ccccc2)n1/N=C\c1ccccc1
VALUE_MEASURED: > 100 µM
//
COMPOUND: CC(=O)NC(CCC(=O)C=[N+]=N)C(=O)O (centres undefined)
VALUE_MEASURED: > 100 µM
//
COMPOUND: O=C1CCC2CC(C(=O)c3ccccc3)CCC2CN1 (centres undefined) (tested in a mixture with another compound)
VALUE_MEASURED: > 100 µM

Q) Can you share its TGI? I mean this compound: Cc1ccc(-c2cc(C(F)(F)F)nn2-c2ccc(S(N)(=O)=O)cc2)cc1
A) > 53.6 µM

---

test system: IGROV1 ovarian; assay: NCI tumour cell line growth inhibition, 48 h
Reported TGI by item:

MOLECULE: Nc1ccn(C2CCC(CO)O2)c(=S)n1 (configuration not stated)
TGI: > 100 µM
--
MOLECULE: CC(=O)Nc1cc(N(CCOS(C)(=O)=O)CCOS(C)(=O)=O)ccc1N=O
TGI: > 100 µM
--
MOLECULE: COC1CCN(C(=O)c2cc(Cc3n[nH]c(=O)c4ccccc34)ccc2F)CC1
TGI: > 100 µM
--
MOLECULE: COc1ccc(OCc2ccc3nc(-c4ccccc4)c(Cl)nc3c2)cc1
TGI: > 100 µM
--
MOLECULE: CC(=O)OC1CCCn2c1nc1c2C(=O)C(C)=C(N2CC2)C1=O (configuration not stated)
TGI: 3.35 µM

Q) Form field - read-out: TGI; system: IGROV1 ovarian; submitted item: O=c1oc2ccccc2c(O)c1/C=N/C(=S)NCCc1ccccc1
A) > 100 µM

Q) Query O=C1CCC2CC(C(=O)c3ccccc3)CCC2CN1 (configuration not stated) (tested in a mixture with another compound) next
A) > 100 µM

Q) Query CC(C)(C)C(=O)OCOP(=O)(OCOC(=O)C(C)(C)C)C1CC(O)N(O)C1=O (configuration not stated) next
A) 9.72 µM

Q) Query COc1cc(C2C(C#N)=C(N)OC3=C2CCS(=O)(=O)c2ccc(C)cc23)cc(OC)c1OC (configuration not stated) next
A) > 100 µM

Q) Query c1cc2c(c(NC3=NCCO3)c1)CCC2 next
A) > 100 µM

Q) Query Cn1cc(C2=C(c3cn(C)c4c([N+](=O)[O-])cccc34)C(=O)NC2=O)c2ccccc21 next
A) > 25 µM

Q) Query Cc1oc2c(Cl)cc(O)c(Cl)c2c2cccc1-2 next
A) 75.4 µM
